- system.name: human cytochrome CYP3A4 (Homo sapiens, UniProt P08684)
- Sequence (P08684 whole entry): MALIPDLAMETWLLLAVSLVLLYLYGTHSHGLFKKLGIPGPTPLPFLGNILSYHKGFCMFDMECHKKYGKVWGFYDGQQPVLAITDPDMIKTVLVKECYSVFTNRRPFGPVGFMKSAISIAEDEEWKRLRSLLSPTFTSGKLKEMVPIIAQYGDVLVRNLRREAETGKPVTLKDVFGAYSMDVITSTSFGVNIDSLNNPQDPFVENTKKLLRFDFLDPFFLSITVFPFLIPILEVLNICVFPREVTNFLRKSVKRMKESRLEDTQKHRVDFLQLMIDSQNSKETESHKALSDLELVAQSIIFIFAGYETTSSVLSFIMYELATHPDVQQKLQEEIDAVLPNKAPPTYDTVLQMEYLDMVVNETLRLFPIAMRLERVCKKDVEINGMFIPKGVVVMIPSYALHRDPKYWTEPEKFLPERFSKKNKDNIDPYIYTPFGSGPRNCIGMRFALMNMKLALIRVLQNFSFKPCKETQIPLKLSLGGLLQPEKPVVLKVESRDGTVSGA
- assay.details: CYP3A4 inhibition assay of dillapiol derivatives (earlier benzyloxyresorufin assay)
- Type: biochemical
- condition: Table 1; CYP3A4 inhibition relative to dillapiol
Rel. Activity Dillapiol = 1.0 values for the molecules below.
Give the figure by itself; no unit, no explanation.

Return value of Rel. Activity Dillapiol = 1.0 for input C=CCc1cc2c(cc1O)OCO2 , no commentary.
0.75

Return value of Rel. Activity Dillapiol = 1.0 for input C=CCc1cc2c(c(C(O)CCCCCCCC)c1OC)OCO2 (single isomer, unassigned) [Compound 7] , no commentary.
2.2

Return value of Rel. Activity Dillapiol = 1.0 for input C=CCc1cc2c(c(O)c1OC)OCO2 , no commentary.
0.26
